- experimentalSystem: T1, EsCas13d, nuclease-dead (Eubacterium siraeum, UniProt B0MS50, R295A;H300A;R849A;H854A)
- T1 sequence: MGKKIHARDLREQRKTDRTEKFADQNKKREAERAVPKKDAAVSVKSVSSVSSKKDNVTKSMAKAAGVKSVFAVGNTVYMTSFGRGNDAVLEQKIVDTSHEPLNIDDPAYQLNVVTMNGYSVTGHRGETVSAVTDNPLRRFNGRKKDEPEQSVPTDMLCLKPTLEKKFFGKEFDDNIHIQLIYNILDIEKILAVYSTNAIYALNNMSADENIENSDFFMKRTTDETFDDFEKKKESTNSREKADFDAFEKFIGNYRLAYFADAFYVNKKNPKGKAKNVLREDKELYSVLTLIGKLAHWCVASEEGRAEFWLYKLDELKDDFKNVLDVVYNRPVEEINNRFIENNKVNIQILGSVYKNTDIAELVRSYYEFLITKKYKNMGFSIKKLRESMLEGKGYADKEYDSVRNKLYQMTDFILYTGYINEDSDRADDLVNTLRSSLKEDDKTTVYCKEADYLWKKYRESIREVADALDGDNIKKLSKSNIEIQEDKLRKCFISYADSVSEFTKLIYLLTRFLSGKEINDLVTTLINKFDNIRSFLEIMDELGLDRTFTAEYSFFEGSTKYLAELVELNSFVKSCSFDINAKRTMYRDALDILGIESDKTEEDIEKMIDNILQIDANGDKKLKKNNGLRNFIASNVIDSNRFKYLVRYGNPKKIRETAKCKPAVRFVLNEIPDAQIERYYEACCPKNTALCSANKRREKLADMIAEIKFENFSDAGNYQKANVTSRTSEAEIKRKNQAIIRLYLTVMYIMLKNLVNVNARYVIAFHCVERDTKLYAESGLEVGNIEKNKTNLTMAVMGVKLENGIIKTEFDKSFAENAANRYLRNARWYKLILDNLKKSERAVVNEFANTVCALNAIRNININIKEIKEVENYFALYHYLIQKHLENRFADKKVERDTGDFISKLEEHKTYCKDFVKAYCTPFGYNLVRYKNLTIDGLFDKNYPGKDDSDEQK
- assayRemarks: crRNA (strand 1, pre-loaded); Mg2+; 40 mM Tris-HCl pH 7.5, 150 mM NaCl, 6 mM MgCl2, 1 mM DTT, 0.1% Tween-20, 0.2 mg/ml BSA; 25 C; 10 min per concentration, then washed
- conditionInfo: tags: His6-TwinStrep-SUMO cleaved; N-terminal SNAP kept (SNAP-Surface 488); label: 3' end held by stalled T7 RNA polymerase
For each entry below, report its log10(Kd) value.
Plainly stated, the numbers are log10 of Kd given in nM.

Some solved entries appear below for comparison.
target 2 MT 5'PFS CGC 3'PFS CCG (mixed) RNA 1: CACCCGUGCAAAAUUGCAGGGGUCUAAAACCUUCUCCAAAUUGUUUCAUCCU RNA 2: GGGAAUGGAUCCACAUCUACGAAUUCCGCAGGAUGAAACAAUUUGGAGAAGCCGAGAUCGGAAGAGCACACGU : 0.91
target 3 insA 3' of 22,insA 3' of 4 (mixed) RNA 1: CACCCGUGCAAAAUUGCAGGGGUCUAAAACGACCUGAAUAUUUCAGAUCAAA RNA 2: GGGAAUGGAUCCACAUCUACGAAUUCGUUUAUUGAUCUGAAAUAUUCAGAGUCUGCAGAUCGGAAGAGCACACGU : 1.69
target 1 MT 5'PFS GUG 3'PFS CAG (mixed) RNA 1: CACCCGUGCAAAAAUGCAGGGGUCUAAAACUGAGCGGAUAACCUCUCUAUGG RNA 2: GGGAAUGGAUCCACAUCUACGAAUUCGUGCCAUAGAGAGGUUAUCCGCUCACAGAGAUCGGAAGAGCACACGU : 1.36
target 1 insA 3' of 13,insG 3' of 4 (mixed) RNA 1: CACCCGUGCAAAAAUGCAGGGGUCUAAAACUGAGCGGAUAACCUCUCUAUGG RNA 2: GGGAAUGGAUCCACAUCUACGAAUUCGUACCAUAGAGAGAGUUAUCCGCGUCACCGAGAUCGGAAGAGCACACGU : 0.48
target 2 MT 5'PFS CUU 3'PFS CGA (mixed) RNA 1: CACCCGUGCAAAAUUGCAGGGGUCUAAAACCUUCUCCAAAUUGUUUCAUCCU RNA 2: GGGAAUGGAUCCACAUCUACGAAUUCCUUAGGAUGAAACAAUUUGGAGAAGCGAAGAUCGGAAGAGCACACGU : 0.53
target 1 C7U,U11A (mixed) RNA 1: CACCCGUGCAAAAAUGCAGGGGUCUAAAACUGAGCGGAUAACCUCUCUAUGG RNA 2: GGGAAUGGAUCCACAUCUACGAAUUCGUACCAUAGAGAGGAUAUUCGCUCACCGAGAUCGGAAGAGCACACGU : 1.51
target 1 MT 5'PFS ACA 3'PFS UUU (mixed) RNA 1: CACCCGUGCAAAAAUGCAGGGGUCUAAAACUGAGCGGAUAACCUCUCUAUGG RNA 2: GGGAAUGGAUCCACAUCUACGAAUUCACACCAUAGAGAGGUUAUCCGCUCAUUUAGAUCGGAAGAGCACACGU : 0.73

Consider now this further binder.
q: Given the binder target 1 insA 3' of 21,insU 3' of 12 (mixed) RNA 1: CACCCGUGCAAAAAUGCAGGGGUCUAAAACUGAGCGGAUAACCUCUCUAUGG RNA 2: GGGAAUGGAUCCACAUCUACGAAUUCGUACCAAUAGAGAGGUUUAUCCGCUCACCGAGAUCGGAAGAGCACACGU , write its reported log10(Kd).
a: 1.21
